tgt: catalytic domain of human Cathepsin B (Homo sapiens (Human), UniProt P07858)
assay_name: Enzymatic activity of the catalytic domain of human Cathepsin B (fluorogenic substrate Z-Arg-Arg-AMC)
Format: biochemical
experimental_context: Ki from IC50 by Cheng-Prusoff equation
observed_property: log10 Ki (log10 of the value in nM)
Answers are given as log10 of Ki in nM.

CC(F)(F)C[C@H](NC(=O)N1CCC2(CCCc3ccccc32)C1)C(=O)NC1(C#N)CC1 (some centres unmarked) = 2.79
CC(F)(F)C[C@H](NC(=O)N1CCC2(CCCCC2)CC1)C(=O)NC1(C#N)CC1 = 1.66

Please give log10 Ki for each item listed below.
1. N#CC1(NC(=O)[C@H](CC(F)(F)Cc2ccccc2)NC(=O)N2CCC3(CC2)CC3)CC1
2. CC(F)(F)C[C@H](NC(=O)N1CCC2(CC1)OCc1ccccc12)C(=O)NC1(C#N)CC1
3. N#CC1(NC(=O)C2(NC(=O)N3CCC4(CCCC4)CC3)CCCCC2)CC1
4. CCCC(F)(F)C[C@H](NC(=O)N1CCC2(CC1)CCN(c1ccc(OC)cc1)C2)C(=O)NC1(C#N)CC1
5. CC(F)(F)C[C@H](NC(=O)N1CCC2(CC1)CCN(Cc1ccccc1)C2=O)C(=O)NC1(C#N)CC1

Data returned:
1: 2.04; 2: 2.72; 3: 3.18; 4: 2.15; 5: 3.34

###

tgt: catalytic domain of human Cathepsin S (Homo sapiens (Human), UniProt P25774)
Sequence (P25774 115-331): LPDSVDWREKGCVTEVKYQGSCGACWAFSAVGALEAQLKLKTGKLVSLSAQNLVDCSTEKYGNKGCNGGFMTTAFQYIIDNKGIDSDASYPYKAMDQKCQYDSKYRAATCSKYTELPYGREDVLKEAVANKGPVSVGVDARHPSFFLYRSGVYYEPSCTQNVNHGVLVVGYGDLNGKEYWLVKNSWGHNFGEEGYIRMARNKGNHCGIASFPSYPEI
assay_name: Enzymatic activity of the catalytic domain of human Cathepsin S (fluorogenic substrate Z-Val-Val-Arg-AMC)
Assay type: biochemical
experimental_context: Ki from IC50 by Cheng-Prusoff equation
observed_property: Ki (nM)
Give bare numbers, in nM.

Please give Ki for each item listed below.
1. CN1CCC(C#N)(NC(=O)[C@H](CC(C)(F)F)NC(=O)N2CCC3(CC2)CC3)CC1
2. N#CC1(NC(=O)C2(NC(=O)N3CCC4(CCCC4)CC3)CCCCC2)CC1
3. CC(F)(F)C[C@H](NC(=O)N1CCC2(CC1)C(=O)NCN2c1ccccc1)C(=O)NC1(C#N)CC1

Data returned:
[27, 53, 11]

###

Would you mind telling me the reported Ki of each entry?
tgt: catalytic domain of human Cathepsin S (Homo sapiens (Human), UniProt P25774)
assay_name: Enzymatic activity of the catalytic domain of human Cathepsin S (fluorogenic substrate Z-Val-Val-Arg-AMC)
Format: biochemical
experimental_context: Ki from IC50 by Cheng-Prusoff equation
Write the numeric value and append its unit.

CC(F)(F)C[C@H](NC(=O)N1CCOC12CCCCC2)C(=O)NC1(C#N)CC1 [Example 80] = 9 nM
CC(F)(F)C[C@H](NC(=O)N1CCC2(CC1)CCC(C)(C)O2)C(=O)NC1(C#N)CC1 [Example 76] = 22 nM

Shift focus to the following entry.
Data request: Form field: Ki recorded for CCCC(F)(F)C[C@H](NC(=O)N1CCC2(CC1)CCN(C1CC1)CC2)C(=O)NC1(C#N)CC1 [Example 94] with catalytic domain of human Cathepsin S (Homo sapiens (Human), UniProt P25774) (enter value)
Data returned: 2 nM

The values you see were collected from patent US8609681B2.
